target: core αA (cAAC, residues 59–153) (human, UniProt P02489 59-153, some population of BME-adducted protein); experiment: native MS; competition: core domain 10 μM mixed with an L-Ser and a D-Ser peptide (one with added glycines), 40 μM each (4:1 peptide/domain), 200 mM ammonium acetate pH 6.9; monomeric species, 5+, 6+, 7+ charge states quantified; details: both partners purified
Sequence (P02489 59-153): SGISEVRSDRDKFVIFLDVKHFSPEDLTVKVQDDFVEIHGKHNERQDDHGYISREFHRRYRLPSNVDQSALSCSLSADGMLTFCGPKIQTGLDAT
observationType: pKd
Hey, just a heads up that pKd is the negative log base 10 of the concentration in molar.

Form field pKd, entry ERAIPVSRE [Ct peptide ERAIPVSRE with L-Ser (canonical all L-amino acid form)] : 4.32
